Some molecules, each annotated with its measured CLint scaled.
# experiment.description: Mouse microsomal stability
# Type: in vitro ADME
# assay.conditions: microsomes
# value in L/h/kg; strip the unit string

CNC(=O)Nc1ccc2c(c1)CC[C@@]21OC(=O)N(CC(=O)N(Cc2ccccc2)[C@@H](C)C2CC2)C1=O [Compound 22]	188

Proceed to the following item.
**Query** # get_value(readout='CLint scaled', item= CNC(=O)Nc1ccc2c(c1)CC[C@@]21OC(=O)N(CC(=O)N(Cc2ccc(F)cc2)[C@H](C2CC2)C(F)(F)F)C1=O [Compound 23] )
**Result** 181

----------
# experiment.description: Nonspecific microsomal binding
# Type: in vitro ADME
# assay.conditions: human, microsomes
observable: fraction unbound

**Query** # get_value(readout='fraction unbound', item= CNC(=O)Nc1ccc2c(c1)CC[C@@]21OC(=O)N(CC(=O)N(Cc2ccc(F)cc2)[C@H](C2CC2)C(F)(F)F)C1=O [Compound 23] )
**Result** 0.22

----------
# experiment.description: in vivo
# assay.conditions: mouse, plasma, po, 1 mg/kg
observable: AUC
Enter the number, and then the unit.

**Query** # get_value(readout='AUC', item= CNC(=O)Nc1ccc2c(c1)CC[C@@]21OC(=O)N(CC(=O)N(Cc2ccc(F)cc2)[C@H](C2CC2)C(F)(F)F)C1=O )
**Result** 1100 ng·h/mL
